Test: Tmax in male Sprague-Dawley rat at 10 mg/kg, po measured at 5 to 1440 mins by LC-MS/MS analysis
Assay type: ADME, organism-based
Details: in vivo, time 5-1440 min
readout: Tmax (min)
One number for each entry, in min.

Incoming: // query Tmax value for entry O=C1Nc2c(cccc2-c2ccc(NC3CCOCC3)cc2)/C1=C/c1ccnc2ccccc12
Outgoing: 39.6

----------
Tested on: RAW264.7
Assay: Anti-inflammatory activity in mouse RAW264.7 cells assessed as inhibition of LPS-induced TNF-alpha production at 5 uM preincubated for 1 hr followed by LPS addition and measured after 24 hrs by ELISA relative to control
Assay type: functional
Design: scale not given: the % may be the effect or the level left
Conditions: time 25 hrs
Categorize each record by its Activity using class 1 (below 40%), class 2 (40% to below 70%), class 3 (70% or more)

Example entries and their recorded answers appear below.
Incoming: For Cn1c(=O)oc2ccc(-c3ccc(C[C@@H](C#N)NC(=O)[C@@H]4CNCCCO4)cc3)cc21 , which Activity bin applies?
Outgoing: class 2

Incoming: Sort into band: O=C(Nc1ccnc2ccccc12)c1cccc(-c2ccc(CN3CCOCC3)cc2)n1
Outgoing: class 2

Incoming: For the record O=C1Nc2c(cccc2-c2ccc(NC3CCOCC3)cc2)/C1=C/c1ccnc2ccccc12 , report the class its Activity corresponds to.
Outgoing: class 3

Incoming: Which category fits this record: NC(=O)c1cccc(NC(=O)c2cccc(-c3ccc(CN4CCOCC4)cc3)c2)c1
Outgoing: class 2

More entries:
Incoming: Where would Nc1c(C(=O)Nc2ccnc3ccccc23)cccc1-c1ccc(CN2CCOCC2)cc1 land among the classes by reported Activity?
Outgoing: class 3

Incoming: Form: Item = O=C1Nc2c(cccc2-c2ccc3cn[nH]c3c2)/C1=C/c1ccnc2ccccc12 ; Class = ?
Outgoing: class 2

----------
Target: Dipeptidyl peptidase 1 (Homo sapiens, UniProt P53634)
Sequence (P53634 25-134 limits assumed): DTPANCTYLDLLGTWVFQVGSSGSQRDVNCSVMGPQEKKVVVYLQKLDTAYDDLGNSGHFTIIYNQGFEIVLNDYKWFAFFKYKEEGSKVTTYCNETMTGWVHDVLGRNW
Sequence (P53634 231-394 limits assumed): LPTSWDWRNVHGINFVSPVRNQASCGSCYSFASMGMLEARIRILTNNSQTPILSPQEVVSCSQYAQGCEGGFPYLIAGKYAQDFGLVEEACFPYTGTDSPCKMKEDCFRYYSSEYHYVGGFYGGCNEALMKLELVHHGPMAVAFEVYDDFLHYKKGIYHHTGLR
Sequence (P53634 395-463 limits assumed): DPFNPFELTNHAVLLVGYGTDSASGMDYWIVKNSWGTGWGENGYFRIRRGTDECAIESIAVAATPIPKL
Assay: Inhibition of human recombinant Cathepsin C using Gly-Phe-AFC as substrate preincubated for 3 hrs followed by substrate addition and measured after 1 hr by fluorescence based multifunctional microplate reader analysis
readout: pIC50
Answers are plain numbers, as −log10 of the molar value.

// known answers, use as guide
Incoming: Return reported pIC50; argument: O=C1Nc2c(cccc2-c2ccc(C(=O)N3CCOCC3)cc2)/C1=C/c1ccnc2ccccc12
Outgoing: 6.74

Incoming: What does the record list as pIC50 for O=C(Nc1cccc2ccccc12)c1cccc(-c2ccc(CN3CCOCC3)cc2)n1 ?
Outgoing: 6.60

Incoming: Can you share its pIC50? I mean this compound: O=C1Nc2c(cccc2-c2ccc(N3CCOCC3)cc2)/C1=C/c1ccnc2ccccc12
Outgoing: 6.27

Incoming: Report pIC50 for O=C1Nc2c(cccc2-c2ccc3[nH]ncc3c2)/C1=C/c1ccnc2ccccc12 please.
Outgoing: 6.72

Incoming: Quick check: pIC50 of Nc1c(C(=O)Nc2nccc3ccccc23)cccc1-c1ccc(CN2CCOCC2)cc1 ?
Outgoing: 6.49

Incoming: Reported pIC50, compound Nc1c(C(=O)Nc2cncc3ccccc23)cccc1-c1ccc(CN2CCOCC2)cc1 : ____
Outgoing: 6.65

Switching to the query record.
Incoming: GET /values?readout=pIC50&item= Nc1c(C(=O)Nc2ccnc3ccccc23)cccc1-c1ccc(CN2CCOCC2)cc1
Outgoing: 6.84

----------
System: RAW264.7
Experiment: Anti-inflammatory activity in mouse RAW264.7 cells assessed as inhibition of LPS-induced TNF-alpha production at 5 uM preincubated for 1 hr followed by LPS addition and measured after 24 hrs by ELISA relative to control
Type: functional
Set-up: scale not given: the % may be the effect or the level left
Conditions: time 25 hrs
Respond with 1 (yes) for Activity values of 50% and above, 0 (no) for values below.

Incoming: Form field: Activity at least 50%? Entry: Nc1n[nH]c2ccc(-c3cccc4c3NC(=O)/C4=C\c3ccnc4ccccc34)cc12
Outgoing: 0 (no)

Incoming: For this compound, is measured Activity 50% or higher? O=C(Nc1cccc2ccccc12)c1cccc(-c2ccc(CN3CCOCC3)cc2)c1
Outgoing: 1 (yes)

Incoming: Does Activity meet or surpass 50% for O=C(Nc1cccc(Cl)c1)c1cccc(-c2ccc(CN3CCOCC3)cc2)c1 ?
Outgoing: 0 (no)

Incoming: Activity >= 50% for O=C1Nc2c(cccc2-c2ccc3cc[nH]c3c2)/C1=C/c1ccnc2ccccc12 ?
Outgoing: 0 (no)

Incoming: Is it the case that O=C(Nc1ccnc2ccccc12)c1cccc(-c2ccc(CN3CCOCC3)cc2)c1 has Activity reaching or exceeding 50%?
Outgoing: 1 (yes)

***
Incoming: Dear colleague, could you confirm whether CN1CCN(Cc2ccc(-c3cccc4c3NC(=O)/C4=C\c3ccnc4ccccc34)cc2)CC1 has Activity at or above 50%?
Outgoing: 1 (yes)

Incoming: Record O=C(Nc1cccc2ccccc12)c1cccc(-c2ccc(CN3CCOCC3)cc2)n1 ; criterion: Activity no lower than 50%. Met?
Outgoing: 1 (yes)

Incoming: hey, is Activity for this one >= 50%? O=C1Nc2c(cccc2-c2ccc(C(=O)NC3CCOCC3)cc2)/C1=C/c1ccnc2ccccc12
Outgoing: 1 (yes)

Incoming: Decide: Activity of COc1cccc(NC(=O)c2cccc(-c3ccc(CN4CCOCC4)cc3)c2)c1 >= 50%?
Outgoing: 0 (no)

----------
Molecular target: UniProtKB P53634
Assay: Inhibition of human recombinant Cathepsin C using Gly-Phe-AFC as substrate preincubated for 3 hrs followed by substrate addition and measured after 1 hr by fluorescence based multifunctional microplate reader analysis
Assignment: determine reported IC50 for the given molecules.

Incoming: Give its IC50 value. Item: O=C1Nc2c(cccc2-c2ccccc2)/C1=C/c1ccnc2ccccc12
Outgoing: > 1000 nM

Incoming: What measured IC50 goes with CNC(=O)c1ccccc1NC(=O)c1cccc(-c2ccc(CN3CCOCC3)cc2)c1 ?
Outgoing: > 1000 nM

Incoming: Can you look up the measured IC50 of O=C(Nc1cccc(F)c1)c1cccc(-c2ccc(CN3CCOCC3)cc2)c1 for me?
Outgoing: > 1000 nM

Incoming: Query: IC50; subject: Cc1ccccc1NC(=O)c1cccc(-c2ccc(CN3CCOCC3)cc2)c1
Outgoing: > 1000 nM

Incoming: # get_value(readout='IC50', item= CN(C)c1ccc(-c2cccc3c2NC(=O)/C3=C\c2ccnc3ccccc23)cc1 )
Outgoing: > 1000 nM

Give me IC50 for each of these molecules, listed below.
1. N#Cc1ccc(-c2cccc3c2NC(=O)/C3=C\c2ccnc3ccccc23)cc1
2. Nc1ccc(NC(=O)c2cccc(-c3ccc(CN4CCOCC4)cc3)c2)cc1

Outgoing:
["> 1000 nM", "> 1000 nM"]

The reported numbers originate from ChEMBL document CHEMBL6092168.
